# subject-of-test: T1, human CD30L expressed on B16 cells (human, UniProt P32971 1-234)
# T1 sequence (looked up): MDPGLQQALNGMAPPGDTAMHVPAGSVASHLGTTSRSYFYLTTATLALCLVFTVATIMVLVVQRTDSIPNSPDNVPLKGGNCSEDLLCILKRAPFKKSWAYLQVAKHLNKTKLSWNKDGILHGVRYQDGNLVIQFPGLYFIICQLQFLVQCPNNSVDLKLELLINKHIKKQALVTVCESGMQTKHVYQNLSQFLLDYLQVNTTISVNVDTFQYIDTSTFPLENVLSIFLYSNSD
# procedure-details: cell-based or functional assay
readout-type: Inhibition of IL-8 release in a dual cell assay (B16-huCD30L cells + K299 cells) IC50 (nM)
Reply with just the number (in nM).

# binder, readout-units, measured-value
rows = [
    ("anti-CD30L antibody clone 1 germlined (antibody, V domains shown) VH: QVQLQESGPGLVKPSETLSLTCTVSGGSISGYYWSWIRQPPGKGLEWIGYIFYSGYTKYNPSLKSRVTISVDTSKNQFSLKLSSVTAADTAVYYCARDRWDFDYWGQGTLVTVSS VL: AIQMTQSPSSLSASVGDRVTITCRASQGIRNNLGWYQQKPGKAPKLLIYAESSLQSGVPSRFSGSGSGTDFTLTISSLQPEDFATYYCLQDFNYPYTFGQGTKLEIK", "nM", 1.29),
    ("anti-CD30L antibody clone 1 (antibody, V domains shown) VH: QVQLQESGPGLVKPSETLSLTCTVSGGSISGYYWSWIRQPPVKGLEWIGYIFYSGYTKYNPSLKSRVTISVDTSKNQFSLKLSSVTAADTAVYYCARDRWDFDYWGQGALVTVSS VL: AIQMTQSPSYLSASVGDRVTIACRASQGIRNNLGWYQQKPGKAPKLLIYAESSLQSGVPSRFSGSGSGTDFTLTISSLQPEDFATYYCLQDFNYPYTFGQGTKLEIK", "nM", 1.43),
]

Looking for the measured Inhibition of IL-8 release in a dual cell assay (B16-huCD30L cells + K299 cells) IC50 of anti-CD30L antibody clone 2 germlined (antibody, V domains shown) VH: EVQLVESGGGLVQPGRSLRLSCAASGFNFDDYAMHWVRQAPGKGLEWVSGISWRSGNIGYADSVKGRFTISRDNAKNSLYLQMNSLRAEDTALYYCAKDKGIGFNWNYEGFDYWGQGTLVTVSS VL: DIQMTQSPSSLSASVGDRVTITCRASQGISNHLAWFQQKPGKAPKSLIYAASSLQSGVPSRFSGSGSGTDFTLTISSLQPEDFATYYCQQYVTYPLTFGGGTKVEIK , can you help?
0.89

Same lookup for anti-CD30L Reference 1 antibody (antibody, human IgG1, lambda, V domains shown) VH: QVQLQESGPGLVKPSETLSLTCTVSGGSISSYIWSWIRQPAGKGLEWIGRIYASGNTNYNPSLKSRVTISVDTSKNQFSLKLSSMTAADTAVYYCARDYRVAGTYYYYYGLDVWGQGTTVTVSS VL: QSALTQPASVSGSPGQSITISCTGTSSDVGVYDYVSWYQQHPGKAPKLMIYEVSNRPSGVSNRFSGSKSGNTASLTISGLQTEDEADYYCSSYTSRSTWVFGGGTKLTVLG , please.
1.61

Same lookup for anti-CD30L antibody clone 2 (antibody, V domains shown) VH: EVQLVESGGGLVQPGRSLRLSCAASGFNFDDYAMHWVRQAPGKGLEWVSGISWRSGNIGYAGSVKGRFTISRDNAKNSLYLQMNSLRPEDSALYYCAKDKGIGFNWNYEGFDYWGQGTLVTVSS VL: DIQMTQSPSSLSASVGDRVTITCRASQGISNHLAWFQQKPGKAPKSLIYAASSLQSGVPSKFSGSGSGTDFTLTISSLQPEDFATYYCQQYVTYPLTFGGGTKVEIK , please.
0.81
